# Subject of test: T1, GST-LIM protein PDZ domain fusion protein (Human, UniProt Q96HC4 2-85)
# T1 construct: also called Human LIM protein; not shown: glutathione S-transferase encoded by vector pGEX-3X (Pharmacia)
# T1 sequence: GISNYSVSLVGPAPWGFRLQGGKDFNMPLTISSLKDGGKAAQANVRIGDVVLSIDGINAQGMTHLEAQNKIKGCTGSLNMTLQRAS
# Protocol text: A/G assays
Ends that are not written are not given here. * marks the point of attachment. Biotin = O=C1N[C@H]2[C@H](CS[C@H]2CCCCC(=O)*)N1
Measured parameter: binding result

Consider the worked cases shown below.
Input: Recorded binding result for Biotin-QEEDGCSCRFPEEEEGGCEL (cysteine pairing not given here, Marked (S), sticky peptide with high background; also called CDw137 (4-1BB ILA) (S)) [CDw137 (4-1BB ILA) C-terminal peptide AA21L] , please?
Output: no binding

Input: // repeat for Biotin-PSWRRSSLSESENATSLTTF (also called CXCR5) [BLR-1 C-terminal peptide AA45L, biotinylated] and report
Output: no binding

Input: Now the same for Biotin-LERTSSVSPSTAEPELSIVF (Only the last four residues are seen in the excerpts) [CC CKR-3 C-terminal peptide AA43L]
Output: no binding

Input: Biotin-LNFPLLQGIRVHGMEALGSF (Only the last four residues are seen in the excerpts) [CD114 (G-CSFR) C-terminal peptide AA27L] ?
Output: no binding

Input: Entry to check: Biotin-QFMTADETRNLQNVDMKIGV (also called CD44 (long form)) [CD44 C-terminal peptide AA9L, biotinylated]
Output: no binding

Moving on to the next binder.
Input: May I ask what binding result has been recorded for Biotin-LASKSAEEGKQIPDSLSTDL [DOCK2 C-terminal peptide AA40L, biotinylated] ?
Output: no binding
